// data source = patent US5880134A

Biological target: 5-HT7 receptor in the dog coronary artery (Canis lupus familiaris, UniProt A0A8I3S709)
Construct: The left anterior descending and circumflex coronary arteries were dissected from the hearts; from tissue; host or cells: dog left anterior descending and circumflex coronary artery rings (mongrel dogs), endothelium removed
Sequence (A0A8I3S709 1-435): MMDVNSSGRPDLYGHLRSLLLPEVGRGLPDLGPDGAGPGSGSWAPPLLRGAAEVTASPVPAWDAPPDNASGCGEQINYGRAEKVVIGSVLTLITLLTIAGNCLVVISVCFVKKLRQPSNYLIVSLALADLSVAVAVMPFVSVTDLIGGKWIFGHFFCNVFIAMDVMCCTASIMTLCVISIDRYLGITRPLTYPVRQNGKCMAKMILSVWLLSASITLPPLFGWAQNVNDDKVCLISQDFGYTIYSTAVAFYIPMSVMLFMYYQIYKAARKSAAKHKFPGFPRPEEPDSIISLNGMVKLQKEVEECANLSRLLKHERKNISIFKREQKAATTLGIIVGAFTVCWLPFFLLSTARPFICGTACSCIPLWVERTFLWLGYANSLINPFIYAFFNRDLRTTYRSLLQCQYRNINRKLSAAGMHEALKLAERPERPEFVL
Assay: 5-HT-induced relaxation of endothelium-denuded canine coronary artery rings precontracted with PGF2α (Schild / dissociation constant analysis)
Type: cell-based
endpoint_label: Kb (nM)
Respond numerically; units are nM and should not be typed.

Take a look at these entries with their results.
molecule | endpoint_label | unit_name | result_number
COC1CCC(OC(=O)C2CC3c4cccc5c4c(cn5C(C)C)CC3N(C)C2)CC1 (stereo not shown) | Kb | nM | 398
CC(C)n1cc2c3c(cccc31)C1CC(C(=O)NC3CCCCC3)CN(C)C1C2 (stereo not shown) | Kb | nM | 200
CC(O)C(C)OC(=O)C1CC2c3cccc4c3c(cn4C(C)C)CC2N(C)C1 (stereo not shown) | Kb | nM | 316

// below: Kb requested for another molecule
Req: Give its Kb value. Item: CC(C)n1cc2c3c(cccc31)C1CC(C(=O)NC3CCCC3O)CN(C)C1C2 (stereo not shown)
Resp: 5.01
